tested on: HIV-1 Env-pseudoviruses (208-strain panel); assay: microbe, parasite or virus in culture; format: cell-based; settings: Human immunodeficiency virus 1, TZM-bl, 3326.v4.c3, clade CD; read-out: IC50
OUTCOME MEASURE: IC50 (nM)
Numbers only, in nM.

Request: Report IC50 for COc1cnc(-c2csc(C(=O)NCCO)n2)c2[nH]cc(C(=O)C(=O)N3CCC(=C(C#N)c4ccccc4)CC3)c12 please.
Result: 0.1

* * *

system: HIV-1 Env-pseudoviruses (208-strain panel); assay: microbe, parasite or virus in culture; assay type: cell-based; conditions: Human immunodeficiency virus 1, TZM-bl, CNE40, clade BC; read-out: IC50
OUTCOME MEASURE: pIC50
Numbers only, as −log10 of the molar value.

Request: Kindly state the measured pIC50 obtained for COc1cnc(-c2csc(C(=O)NCCO)n2)c2[nH]cc(C(=O)C(=O)N3CCC(=C(C#N)c4ccccc4)CC3)c12 with HIV-1 Env-pseudoviruses (208-strain panel).
Result: 9.00

* * *

Kindly state IC50 for each of the entries shown.
tested on: HIV-1 Env-pseudoviruses (30-strain panel); assay: Neutralization assay, cross-clade 30-strain panel (Env-pseudoviruses, TZM-bl target cells); assay type: cell-based; conditions: Human immunodeficiency virus 1, TZM-bl; read-out: IC50
Numbers only, in nM.

Completed entries (count: 2):
{"columns": ["SUBSTANCE SMILES", "IC50 [nM]"],
 "data": [
  ["COc1cnc(-n2cnc(C)n2)c2[nH]cc(C(=O)C(=O)N3CCN(C(=O)c4ccccc4)CC3)c12", 5],
  ["O=C(C(=O)N1CCN(C(=O)c2ccccc2)CC1)c1c[nH]c2c(F)ccc(Br)c12", 4670]
]}

Here is another compound to look at.
Request: Report IC50 for COc1cnc(-c2csc(CN(C)CCCN(C)C)n2)c2[nH]cc(C(=O)C(=O)N3CCC(=C(C#N)c4ccccc4)CC3)c12 please.
Result: 8

* * *

system: HIV-1 Env-pseudoviruses (208-strain panel); assay: microbe, parasite or virus in culture; assay type: cell-based; conditions: Human immunodeficiency virus 1, TZM-bl, RW020.2, clade A; read-out: IC50
OUTCOME MEASURE: pIC50
Answers are plain numbers, as −log10 of the molar value.

Request: Report pIC50 for COc1cnc(-c2csc(C(=O)NCCO)n2)c2[nH]cc(C(=O)C(=O)N3CCC(=C(C#N)c4ccccc4)CC3)c12 please.
Result: 9.15

* * *

test system: HIV-1 Env-pseudoviruses (208-strain panel); test: microbe, parasite or virus in culture; assay type: cell-based; settings: Human immunodeficiency virus 1, TZM-bl, 271-11, clade AG; read-out: IC50
OUTCOME MEASURE: IC50 (nM)
Numbers only, in nM.

Request: Report IC50 for COc1cnc(-c2csc(C(=O)NCCO)n2)c2[nH]cc(C(=O)C(=O)N3CCC(=C(C#N)c4ccccc4)CC3)c12 please.
Result: 1240

* * *

system: HIV-1 Env-pseudoviruses (208-strain panel); assay: microbe, parasite or virus in culture; type: cell-based; conditions: Human immunodeficiency virus 1, TZM-bl, 246-F3.C10.2, clade AC; read-out: IC50
OUTCOME MEASURE: pIC50
Give bare numbers, as −log10 of the molar value.

Request: Report pIC50 for COc1cnc(-c2csc(C(=O)NCCO)n2)c2[nH]cc(C(=O)C(=O)N3CCC(=C(C#N)c4ccccc4)CC3)c12 please.
Result: 8.70

* * *

system: HIV-1 Env-pseudoviruses (30-strain panel); assay: Neutralization assay, cross-clade 30-strain panel (Env-pseudoviruses, TZM-bl target cells); format: cell-based; details: Human immunodeficiency virus 1, TZM-bl, DU156.12 (Clade C); read-out: IC50
Kindly state pIC50 for each of the entries shown.
Numbers only, as −log10 of the molar value.

{"columns": ["COMPOUND", "pIC50"],
 "data": [
  ["COc1cnc(-c2csc(CN(C)CCCN(C)C)n2)c2[nH]cc(C(=O)C(=O)N3CCC(=C(C#N)c4ccccc4)CC3)c12", 7.70],
  ["O=C(c1ccsc1)N1CCN(C(=O)C2(c3cccc(Cl)c3)CC2)CC1 [Compound 484, reference compound]", 5.11]
]}

Look at each compound and report its pIC50.
1. COc1cnc(-n2cnc(C)n2)c2[nH]cc(C(=O)C(=O)N3CCN(C(=O)c4ccccc4)CC3)c12
2. O=C(C(=O)N1CCN(C(=O)c2ccccc2)CC1)c1c[nH]c2c(F)ccc(Br)c12

Result:
1. 8.70
2. 5.87

* * *

tested on: HIV-1 Env-pseudoviruses (208-strain panel); test: microbe, parasite or virus in culture; format: cell-based; conditions: Human immunodeficiency virus 1, TZM-bl, CH038.12, clade BC; read-out: IC50
OUTCOME MEASURE: pIC50
Answers are plain numbers, as −log10 of the molar value.

Request: Kindly state the measured pIC50 obtained for COc1cnc(-c2csc(C(=O)NCCO)n2)c2[nH]cc(C(=O)C(=O)N3CCC(=C(C#N)c4ccccc4)CC3)c12 with HIV-1 Env-pseudoviruses (208-strain panel).
Result: 7.04

* * *

System: HIV-1 Env-pseudoviruses (208-strain panel)
Test: microbe, parasite or virus in culture
Assay type: cell-based
Details: Human immunodeficiency virus 1, TZM-bl, PVO.04 (Clade B); read-out: IC50
Procedure: Neutralization was measured using single-round-of-infection HIV-1 Env-pseudoviruses and TZM-bl target cells (ARP Cat No. #8129)[44],[45]. Compounds were prepared at 400 μM with 4% DMSO (dimethyl sulfoxide) in PBS (phosphate-buffered saline) and diluted 20 times as the starting concentration for serial dilution in the neutralization assays. […] After incubation at 37 °C for 2 days, infection of target cells was measured by luciferase activity. […]
OUTCOME MEASURE: pIC50
Answers are plain numbers, as −log10 of the molar value.

Request: Report pIC50 for COc1cnc(-c2csc(C(=O)NCCO)n2)c2[nH]cc(C(=O)C(=O)N3CCC(=C(C#N)c4ccccc4)CC3)c12 please.
Result: 9.40

* * *

tested on: HIV-1 Env-pseudoviruses (208-strain panel); assay: microbe, parasite or virus in culture; format: cell-based; details: Human immunodeficiency virus 1, TZM-bl, CH181.12, clade BC; read-out: IC50
OUTCOME MEASURE: pIC50
Answers are plain numbers, as −log10 of the molar value.

Request: Kindly state the measured pIC50 obtained for COc1cnc(-c2csc(C(=O)NCCO)n2)c2[nH]cc(C(=O)C(=O)N3CCC(=C(C#N)c4ccccc4)CC3)c12 [BMS-818251] with HIV-1 Env-pseudoviruses (208-strain panel).
Result: 10.00

* * *

Test system: HIV-1 Env-pseudoviruses (208-strain panel)
Assay: microbe, parasite or virus in culture
Type: cell-based
Details: Human immunodeficiency virus 1, TZM-bl, BG1168.01, clade B; read-out: IC50
Description: Neutralization was measured using single-round-of-infection HIV-1 Env-pseudoviruses and TZM-bl target cells (ARP Cat No. #8129)[44],[45]. Compounds were prepared at 400 μM with 4% DMSO (dimethyl sulfoxide) in PBS (phosphate-buffered saline) and diluted 20 times as the starting concentration for serial dilution in the neutralization assays. […] After incubation at 37 °C for 2 days, infection of target cells was measured by luciferase activity. […]
OUTCOME MEASURE: IC50 (nM)
Give bare numbers, in nM.

Request: Report IC50 for COc1cnc(-c2csc(C(=O)NCCO)n2)c2[nH]cc(C(=O)C(=O)N3CCC(=C(C#N)c4ccccc4)CC3)c12 [BMS-818251] please.
Result: 1

* * *

system: HIV-1 Env-pseudoviruses (208-strain panel); assay: microbe, parasite or virus in culture; assay type: cell-based; details: Human immunodeficiency virus 1, TZM-bl, 6545.v4.c1, clade AC; read-out: IC50
OUTCOME MEASURE: IC50 (nM)
One number for each entry, in nM.

Request: Report IC50 for COc1cnc(-c2csc(C(=O)NCCO)n2)c2[nH]cc(C(=O)C(=O)N3CCC(=C(C#N)c4ccccc4)CC3)c12 please.
Result: 0.5

* * *

test system: HIV-1 Env-pseudoviruses (208-strain panel); experiment: microbe, parasite or virus in culture; assay type: cell-based; conditions: Human immunodeficiency virus 1, TZM-bl, 247-23 (Clade D); read-out: IC50
OUTCOME MEASURE: pIC50
One number for each entry, as −log10 of the molar value.

Request: Report pIC50 for COc1cnc(-c2csc(C(=O)NCCO)n2)c2[nH]cc(C(=O)C(=O)N3CCC(=C(C#N)c4ccccc4)CC3)c12 [BMS-818251] please.
Result: 9.30

* * *

tested on: HIV-1 Env-pseudoviruses (208-strain panel); assay: microbe, parasite or virus in culture; type: cell-based; settings: Human immunodeficiency virus 1, TZM-bl
OUTCOME MEASURE: IC50 (nM)
Numbers only, in nM.

Request: Report IC50 for COc1cnc(-c2csc(C(=O)NCCO)n2)c2[nH]cc(C(=O)C(=O)N3CCC(=C(C#N)c4ccccc4)CC3)c12 please.
Result: 0.3

Where do the numbers come from? From paper PMC6318274.
